Target under test: rat P2X3 receptor (Rattus norvegicus, UniProt P49654)
Construct: expressed in transfected cells; host or cells: CHO-K1
Sequence (P49654 whole entry): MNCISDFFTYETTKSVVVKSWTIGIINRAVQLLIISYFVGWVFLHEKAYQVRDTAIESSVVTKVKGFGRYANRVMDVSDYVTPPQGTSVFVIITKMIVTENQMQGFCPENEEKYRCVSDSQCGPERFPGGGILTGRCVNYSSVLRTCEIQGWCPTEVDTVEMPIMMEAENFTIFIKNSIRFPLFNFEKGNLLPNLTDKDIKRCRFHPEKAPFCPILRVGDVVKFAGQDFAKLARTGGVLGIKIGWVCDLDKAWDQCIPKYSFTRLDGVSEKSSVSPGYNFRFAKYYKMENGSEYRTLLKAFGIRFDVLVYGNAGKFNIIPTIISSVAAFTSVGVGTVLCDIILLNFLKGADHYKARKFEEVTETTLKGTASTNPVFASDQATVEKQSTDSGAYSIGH
Experiment description: P2X3 FLIPR (Fluorometric Imaging Plate Reader) assay
Format: cell-based
Condition description: CHO-K1 cells transfected with cloned rat P2X3; agonist α,β-meATP 1 μM; Fluo-3 AM calcium fluorescence
Measured metric: P2X3 (pIC50 values for the P2X3 receptor)

Compound: COC[C@@H](C)NC(=O)c1cc(-c2ccc(F)cc2F)cc(N(C)C(=O)C(C)C)c1
Experimental result: 5.38
//
Compound: Cc1ccc(-c2cc(C(=O)NC(C)c3cnccn3)cc(N(C)C(=O)C(C)C)c2)c(Cl)c1 (centres unmarked)
Experimental result: 6.29
//
Compound: Cc1ccc(-c2cc(C(=O)N[C@@H](C)CO)cc(N(C)C(=O)C(C)C)c2)c(Cl)c1
Experimental result: 5.53
//
Compound: CCC(=O)N(C)c1cc(C(=O)N[C@H](C)CN2CCOCC2)cc(-c2ccc(C)cc2)c1
Experimental result: 6.88
//
Compound: COCC(C)NC(=O)c1cc(NC(=O)c2ccccc2)cc(-c2ccc(C)cc2)c1 (centres unmarked)
Experimental result: 5.69
//
Compound: CC(=O)N(C)c1cc(C(=O)NC(C)c2cnccn2)cc(-c2ccc(C)cc2)c1 (centres unmarked)
Experimental result: 6.05
//
Compound: CCNC(=O)N(C)c1cc(C(=O)NC(C)c2cnccn2)cc(-c2ccc(Cl)cc2)c1 (centres unmarked)
Experimental result: 5.38
//
Compound: CCN(C(=O)OC)c1cc(C(=O)NC(C)c2cnccn2)cc(-c2ccc(C)cc2)c1 (centres unmarked)
Experimental result: 7.28
